- Test system: WHIM2 (cells of a triple-negative basal-like breast cancer xenograft);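 also: PDX cells carrying CMV promoter-driven luciferase, viability read as total photon flux per second by IVIS imaging following D-luciferin, vehicle control 0.1% DMSO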
- experiment: cell viability (% of vehicle); higher = less cytotoxic
- test context: 10 µM; 72 h
Consider the following molecules and their measured cell viability readings.
I'd appreciate a reply containing only the number, no unit.

                                   molecule  quantity_measured  result_number
0  CCC(=O)OCC(=O)C1(OC(=O)CC)C(C)CC2C3CCC4=CC(=O)C=CC4(C)C3(Cl)C(O)CC21C (stereo not drawn) [Beclomethasone dipropionate]     cell viability            128
1  O=C(CCCCCCNC(=O)c1cnc(N(c2ccccc2)c2ccccc2)nc1)NO [Rocilinostat (ACY-1215)]     cell viability           51.2

Read the next record carefully.
cell viability for Cc1ccc(Nc2nccc(N(C)c3ccc4c(C)n(C)nc4c3)n2)cc1S(N)(=O)=O.Cl [Pazopanib Hydrochloride] ?
127
